test system: Plasmodium falciparum; assay: Antimalarial activity against chloroquine-resistant Plasmodium falciparum TM6 infected in human A positive erythrocytes assessed as inhibition of [G-3H]-hypoxanthine uptake after 24 hrs by liquid scintillation counting; assay type: functional, organism-based; conditions: TM6, 24 h
Measured parameter: IC50 (nM)

Compound	Study target	Endpoint unit	Experimental result
O=C(C[C@@H]1NCCC[C@H]1O)Cn1cnc2ccccc2c1=O [FEBRIFUGINE]	Plasmodium falciparum	nM	3.1
O=C(Cn1cnc2cccc(F)c2c1=O)[C@H]1NCC[C@@H]1O	Plasmodium falciparum	nM	3.9
O=C(Cn1cnc2ccccc2c1=O)[C@H]1NCC[C@@H]1O	Plasmodium falciparum	nM	3.1
O=C(Cn1cnc2cccnc2c1=O)[C@H]1NCC[C@@H]1O	Plasmodium falciparum	nM	2.1
